target_of_assay: S-adenosylmethionine decarboxylase proenzyme (Homo sapiens) (UniProt P17707)
Sequence (P17707 1-67 limits assumed): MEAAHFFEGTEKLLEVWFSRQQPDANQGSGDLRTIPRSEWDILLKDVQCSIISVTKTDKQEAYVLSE
Sequence (P17707 68-334 limits assumed): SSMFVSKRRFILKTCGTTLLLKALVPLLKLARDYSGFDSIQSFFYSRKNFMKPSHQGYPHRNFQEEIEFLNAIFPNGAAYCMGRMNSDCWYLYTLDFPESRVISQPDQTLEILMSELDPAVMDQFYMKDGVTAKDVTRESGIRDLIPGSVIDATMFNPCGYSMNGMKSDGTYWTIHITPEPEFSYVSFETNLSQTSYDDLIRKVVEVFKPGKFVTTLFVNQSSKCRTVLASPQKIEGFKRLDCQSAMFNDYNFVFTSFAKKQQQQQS
protocol: Inhibition of recombinant human N-terminal His6-tagged AdoMetDC expressed in Escherichia coli BL21/DE3 cells at 180 uM at pH 7.2 by RapidFire-MS-based enzyme activity assay
Below, each entry is listed with its recorded inhibition.
experimental_readout: inhibition

>  <compound_structure_string>
Cc1cc(Nc2cc(Br)c(F)c(Br)c2)nc(N)n1

>  <experimental_readout>
inhibition

>  <result>
43%

$$$$
>  <compound_structure_string>
CSc1cccc(Nc2cc(C)nc(N)n2)c1

>  <experimental_readout>
inhibition

>  <result>
23%

$$$$
>  <compound_structure_string>
CCc1cc(Nc2cc(Cl)cc(Cl)c2)nc(N)n1

>  <experimental_readout>
inhibition

>  <result>
36%

$$$$
>  <compound_structure_string>
Cc1cc(Nc2cc(Cl)cc(C(F)(F)F)c2)nc(N)n1

>  <experimental_readout>
inhibition

>  <result>
39%

$$$$
>  <compound_structure_string>
Cc1cc(Nc2cc(Cl)cc(C#N)c2)nc(N)n1

>  <experimental_readout>
inhibition

>  <result>
29%

$$$$
>  <compound_structure_string>
Cc1nc(N)nc(Nc2cc(Cl)cc(Cl)c2)c1C

>  <experimental_readout>
inhibition

>  <result>
25%

$$$$
>  <compound_structure_string>
CCOc1cc(Br)cc(Nc2cc(C)nc(N)n2)c1

>  <experimental_readout>
inhibition

>  <result>
36%

$$$$
>  <compound_structure_string>
Cc1cc(Nc2cc(Cl)cc(Br)c2)nc(N)n1

>  <experimental_readout>
inhibition

>  <result>
33%

$$$$
>  <compound_structure_string>
Cc1cc(Nc2cc(S(C)(=O)=O)cc(S(C)(=O)=O)c2)nc(N)n1

>  <experimental_readout>
inhibition

>  <result>
39%

$$$$
>  <compound_structure_string>
Cc1cc(NCCc2cc(Cl)cc(Cl)c2)nc(N)n1

>  <experimental_readout>
inhibition

>  <result>
29%

$$$$
>  <compound_structure_string>
Cc1cc(Nc2cc(Cl)cc(-c3ccsc3)c2)nc(N)n1

>  <experimental_readout>
inhibition

>  <result>
30%

$$$$
>  <compound_structure_string>
COc1cc(Nc2cc(C)nc(N)n2)cc(OC)c1

>  <experimental_readout>
inhibition

>  <result>
21%

$$$$
>  <compound_structure_string>
Cc1cc(Nc2cc(Cl)cc(Cl)c2)nc(N)n1

>  <experimental_readout>
inhibition

>  <result>
27%

$$$$
>  <compound_structure_string>
C=CCOc1cc(Br)cc(Nc2cc(C)nc(N)n2)c1

>  <experimental_readout>
inhibition

>  <result>
28%

$$$$
>  <compound_structure_string>
Cc1cc(Nc2cc(Br)cc(Br)c2)nc(N)n1

>  <experimental_readout>
inhibition

>  <result>
31%

$$$$
>  <compound_structure_string>
Cc1cc(Nc2cc(Cl)cc(-c3ccoc3)c2)nc(N)n1

>  <experimental_readout>
inhibition

>  <result>
30%

$$$$

----------
protocol: Inhibition of recombinant Trypanosoma brucei N-terminal His6-tagged AdoMetDC/prozyme hetrodimer expressed in Escherichia coli BL21/DE3 cells at pH 7.2 by RapidFire-MS-based enzyme activity assay
experimental_readout: IC50 (µM)

>  <compound_structure_string>
Cc1cc(Nc2cc(Cl)c(F)c(Cl)c2)nc(N)n1

>  <relation_symbol>
=

>  <measured_number>
1.5

$$$$
>  <compound_structure_string>
Cc1cc(Nc2ccc(Cl)cc2C)nc(N)n1

>  <relation_symbol>
>

>  <measured_number>
180

$$$$
>  <compound_structure_string>
Cc1cc(Nc2cc(Cl)c(Cl)c(Cl)c2)nc(N)n1

>  <relation_symbol>
=

>  <measured_number>
11

$$$$
>  <compound_structure_string>
Cc1cc(Nc2cc(Cl)cc(-c3ccc(Cl)c(Cl)c3)c2)nc(N)n1

>  <relation_symbol>
=

>  <measured_number>
102

$$$$
>  <compound_structure_string>
Cc1cc(Nc2cc(Cl)cc(-c3ccccc3Cl)c2)nc(N)n1

>  <relation_symbol>
=

>  <measured_number>
26

$$$$
>  <compound_structure_string>
Cc1cc(Nc2ccc(C(F)(F)F)cc2)nc(N)n1

>  <relation_symbol>
>

>  <measured_number>
180

$$$$
>  <compound_structure_string>
Cc1cc(Nc2cc(Cl)cc(-c3ccc4c(c3)OCO4)c2)nc(N)n1

>  <relation_symbol>
=

>  <measured_number>
6.2

$$$$
>  <compound_structure_string>
Cc1cc(Nc2cc(S(C)(=O)=O)cc(S(C)(=O)=O)c2)nc(N)n1

>  <relation_symbol>
=

>  <measured_number>
1.5

$$$$
>  <compound_structure_string>
Cc1cc(Nc2cc(Cl)cc(-c3cc4ccccc4s3)c2)nc(N)n1

>  <relation_symbol>
=

>  <measured_number>
41

$$$$
>  <compound_structure_string>
Cc1cc(Nc2cc(Cl)c(OC(F)F)c(Cl)c2)nc(N)n1

>  <relation_symbol>
>

>  <measured_number>
63

$$$$
>  <compound_structure_string>
Cc1cc(Nc2cc(Cl)c(N3CCOCC3)c(Cl)c2)nc(N)n1

>  <relation_symbol>
>

>  <measured_number>
180

$$$$
>  <compound_structure_string>
Nc1nccc(Nc2cc(Cl)cc(Cl)c2)n1

>  <relation_symbol>
=

>  <measured_number>
13

$$$$
>  <compound_structure_string>
Cc1cc(Nc2cc(F)cc(Cl)c2)nc(N)n1

>  <relation_symbol>
=

>  <measured_number>
32

$$$$
>  <compound_structure_string>
Cc1cc(Nc2ccccc2Br)nc(N)n1

>  <relation_symbol>
>

>  <measured_number>
180

$$$$
>  <compound_structure_string>
Cc1cc(Nc2cc(Cl)cc(Cl)c2)ncn1

>  <relation_symbol>
>

>  <measured_number>
180

$$$$
>  <compound_structure_string>
Nc1nc2c(c(Nc3cc(Cl)cc(Cl)c3)n1)CCC2

>  <relation_symbol>
=

>  <measured_number>
12

$$$$
>  <compound_structure_string>
Cc1cc(Nc2cc(Cl)ccc2C)nc(N)n1

>  <relation_symbol>
>

>  <measured_number>
180

$$$$
>  <compound_structure_string>
Cc1cc(Nc2cc(Cl)cc(Cl)c2)nc(N(C)C)n1

>  <relation_symbol>
>

>  <measured_number>
180

$$$$
>  <compound_structure_string>
Nc1ccnc(Nc2cc(Cl)cc(Cl)c2)c1

>  <relation_symbol>
>

>  <measured_number>
180

$$$$
>  <compound_structure_string>
Cc1cc(Nc2cc(Cl)cc(-c3cc4ccccc4c4ccccc34)c2)nc(N)n1

>  <relation_symbol>
>

>  <measured_number>
180

$$$$
>  <compound_structure_string>
CCc1cc(Nc2cc(Cl)cc(Cl)c2)nc(N)n1

>  <relation_symbol>
=

>  <measured_number>
3

$$$$
>  <compound_structure_string>
Cc1cc(Nc2cc(Cl)cc(-c3ccccc3)c2)nc(N)n1

>  <relation_symbol>
=

>  <measured_number>
3.3

$$$$
>  <compound_structure_string>
CSc1ccccc1Nc1cc(C)nc(N)n1

>  <relation_symbol>
>

>  <measured_number>
180

$$$$
>  <compound_structure_string>
Cc1cc(Nc2cc(Br)cc(Br)c2)nc(N)n1

>  <relation_symbol>
=

>  <measured_number>
1.9

$$$$
>  <compound_structure_string>
Cc1cc(Nc2cc(Cl)cc(-c3ccoc3)c2)nc(N)n1

>  <relation_symbol>
=

>  <measured_number>
7.4

$$$$
>  <compound_structure_string>
Nc1cc(Nc2cc(Cl)cc(Cl)c2)nc(N)n1

>  <relation_symbol>
=

>  <measured_number>
48

$$$$
>  <compound_structure_string>
Nc1nc(Nc2cc(Cl)cc(Cl)c2)cc(C(F)(F)F)n1

>  <relation_symbol>
>

>  <measured_number>
180

$$$$
>  <compound_structure_string>
Cc1cc(Sc2cc(Cl)cc(Cl)c2)nc(N)n1

>  <relation_symbol>
>

>  <measured_number>
180

$$$$
>  <compound_structure_string>
Cc1cc(Nc2cc(Cl)cc(-c3ccsc3)c2)nc(N)n1

>  <relation_symbol>
=

>  <measured_number>
26

$$$$
>  <compound_structure_string>
Cc1cc(Nc2cccc(Cl)c2C)nc(N)n1

>  <relation_symbol>
>

>  <measured_number>
180

$$$$
>  <compound_structure_string>
Nc1cccc(Nc2cc(Cl)cc(Cl)c2)n1

>  <relation_symbol>
>

>  <measured_number>
180

$$$$
>  <compound_structure_string>
Cc1cc(Nc2cc(Cl)cc(-c3ccc(O)cc3)c2)nc(N)n1

>  <relation_symbol>
=

>  <measured_number>
143

$$$$
>  <compound_structure_string>
Cc1cc(Nc2cc(Cl)cc(-c3ccc4nonc4c3)c2)nc(N)n1

>  <relation_symbol>
=

>  <measured_number>
27

$$$$
>  <compound_structure_string>
CNc1nc(C)cc(Nc2cc(Cl)cc(Cl)c2)n1

>  <relation_symbol>
>

>  <measured_number>
63

$$$$
>  <compound_structure_string>
Cc1nc(N)nc(Nc2cc(Cl)cc(Cl)c2)c1C

>  <relation_symbol>
=

>  <measured_number>
4.8

$$$$
>  <compound_structure_string>
Cc1cc(Nc2cc(C(=O)Nc3cc(Cl)cc(Cl)c3)cc(C(=O)Nc3cc(Cl)cc(Cl)c3)c2)nc(N)n1

>  <relation_symbol>
>

>  <measured_number>
180

$$$$
>  <compound_structure_string>
Cc1cc(Nc2cc(Cl)cc(C#N)c2)nc(N)n1

>  <relation_symbol>
=

>  <measured_number>
3.9

$$$$
>  <compound_structure_string>
Cc1cc(Nc2cc(Cl)c(N3CCCCC3)c(Cl)c2)nc(N)n1

>  <relation_symbol>
>

>  <measured_number>
180

$$$$
>  <compound_structure_string>
Nc1nc(Nc2cc(Cl)cc(Cl)c2)cc(N2CCOCC2)n1

>  <relation_symbol>
>

>  <measured_number>
180

$$$$
>  <compound_structure_string>
Cc1cc(Nc2cc(Cl)cc(-c3ccc(-c4ccccc4)cc3)c2)nc(N)n1

>  <relation_symbol>
=

>  <measured_number>
167

$$$$
>  <compound_structure_string>
Cc1cc(NCCc2cc(Cl)cc(Cl)c2)nc(N)n1

>  <relation_symbol>
=

>  <measured_number>
28

$$$$
>  <compound_structure_string>
COc1ccc(-c2cc(Cl)cc(Nc3cc(C)nc(N)n3)c2)cc1

>  <relation_symbol>
=

>  <measured_number>
2.3

$$$$
>  <compound_structure_string>
Cc1cc(Nc2cc(Cl)cc(-c3ccc(Cl)c(C(F)(F)F)c3)c2)nc(N)n1

>  <relation_symbol>
=

>  <measured_number>
53

$$$$
>  <compound_structure_string>
Cc1cc(Nc2cc(Cl)cc(-c3cccc(Cl)c3)c2)nc(N)n1

>  <relation_symbol>
=

>  <measured_number>
81

$$$$
>  <compound_structure_string>
Nc1nc(Cl)cc(Nc2cc(Cl)cc(Cl)c2)n1

>  <relation_symbol>
>

>  <measured_number>
180

$$$$
>  <compound_structure_string>
CCc1ccc(Nc2cc(C)nc(N)n2)cc1

>  <relation_symbol>
>

>  <measured_number>
180

$$$$
>  <compound_structure_string>
Cc1cc(C)cc(Nc2cc(C)nc(N)n2)c1

>  <relation_symbol>
=

>  <measured_number>
141

$$$$
>  <compound_structure_string>
CCCCOc1cc(Br)cc(Nc2cc(C)nc(N)n2)c1

>  <relation_symbol>
=

>  <measured_number>
4.5

$$$$
>  <compound_structure_string>
Cc1cc(NCc2cc(Cl)cc(Cl)c2)nc(N)n1

>  <relation_symbol>
=

>  <measured_number>
139

$$$$
